Each item that follows carries a reported IC50.
target: beta-catenin/TCF4 engagement (Homo sapiens, UniProt P35222); construct: expressed in transfected cells; host or cells: HEK293; assay: Nano-BRET target engagement assay (B-cat-Halo & TCF4-Luc in HEK293 cells); assay type: cell-based; details: Abs IC50; read-out: NanoBRET Abs IC50
Sequence (P35222 whole entry): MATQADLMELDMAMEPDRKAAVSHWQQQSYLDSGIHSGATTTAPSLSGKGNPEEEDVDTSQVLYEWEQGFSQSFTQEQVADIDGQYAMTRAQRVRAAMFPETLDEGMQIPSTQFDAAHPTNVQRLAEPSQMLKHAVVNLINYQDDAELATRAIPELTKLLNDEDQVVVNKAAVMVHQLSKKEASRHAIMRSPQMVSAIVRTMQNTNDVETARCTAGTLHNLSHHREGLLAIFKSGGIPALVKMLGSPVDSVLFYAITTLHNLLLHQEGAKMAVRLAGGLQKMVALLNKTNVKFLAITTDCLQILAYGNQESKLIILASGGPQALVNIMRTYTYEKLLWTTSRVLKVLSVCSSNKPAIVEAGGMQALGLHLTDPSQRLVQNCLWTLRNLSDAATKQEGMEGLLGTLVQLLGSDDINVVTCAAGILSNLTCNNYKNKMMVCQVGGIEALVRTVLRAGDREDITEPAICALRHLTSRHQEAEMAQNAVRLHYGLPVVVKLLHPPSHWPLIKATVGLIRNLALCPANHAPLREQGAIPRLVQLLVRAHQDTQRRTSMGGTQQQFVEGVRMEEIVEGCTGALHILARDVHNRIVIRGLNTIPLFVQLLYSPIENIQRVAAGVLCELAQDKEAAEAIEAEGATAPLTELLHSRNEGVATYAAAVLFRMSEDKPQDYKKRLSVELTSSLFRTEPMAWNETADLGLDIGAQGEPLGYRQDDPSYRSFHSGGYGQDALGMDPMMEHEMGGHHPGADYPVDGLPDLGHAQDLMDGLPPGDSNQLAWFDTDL
Readout Name: IC50 (µM)

1) CC(=O)N1CCC[C@]12CC=CCCCC1(CCCC=CCCCCCC[C@@](C)(C(=O)N[C@@H](Cc3ccccc3)C(=O)N[C@@H](Cc3csc4ccccc34)C(=O)N[C@@H](CC(N)=O)C(N)=O)NC(=O)[C@H](CC(N)=O)NC(=O)[C@H](Cc3ccccc3)NC(=O)[C@H](C)NC(=O)[C@H](C)NC(=O)[C@H](CCC(=O)O)NC(=O)[C@H](CC(=O)O)NC1=O)NC(=O)[C@H](CC(C)C)NC(=O)[C@H](CC(=O)O)NC2=O (some centres unmarked) [I-753] : 10
2) CC(=O)N1CCC[C@]12CC=CCCCC1(CCCC=CCCCOC(=O)N3CC[C@@](C(=O)N[C@@H](Cc4ccsc4)C(=O)N[C@@H](Cc4csc5ccccc45)C(=O)N[C@@H](CCC(N)=O)C(N)=O)(C3)NC(=O)[C@H](CC(N)=O)NC(=O)[C@H](Cc3ccccc3)NC(=O)[C@H](C)NC(=O)[C@H](C)NC(=O)[C@H](CN(CC(=O)O)CC(F)(F)F)NC(=O)[C@H](CC(=O)O)NC1=O)NC(=O)[C@H](CC(C)(C)C)NC(=O)[C@H](CC(=O)O)NC2=O (single isomer, unassigned) [I-762] : 10
